Reference source for all entries: ChEMBL document CHEMBL1275322

# System: 786-0
# Protocol Summary: Cytotoxicity against human 786-0 cells by MTT assay
# Assay type: functional, cell-based
Each entry below carries its recorded pIC50.
Scale explanation: pIC50 corresponds to minus log10 of a concentration expressed in moles per litre.

As a guide, the following entries are already answered.
{"columns": ["Sample Smiles", "pIC50"],
 "data": [
  ["NCCNC(=O)c1nccc2c1[nH]c1ccccc12", 4.06],
  ["CCN(CC)CCCNC(=O)c1nccc2c1[nH]c1ccccc12", 3.95]
]}

Fill blank: measured pIC50 of the compound "NCCCCCCNc1nccc2c3ccccc3n(CCCc3ccccc3)c12" is ____.
4.95

Fill blank: measured pIC50 of the compound "NCCNc1nccc2c3ccccc3n(Cc3ccc(F)cc3)c12" is ____.
4.73

----------
# Test system: CWR22R
# Protocol Summary: Cytotoxicity against human 22Rv1 cells by MTT assay
# Format: functional, cell-based
Each entry below carries its recorded IC50.

{"columns": ["Sample Smiles", "Data Value"],
 "data": [
  ["NCCNc1nccc2c1[nH]c1ccccc12", "41.3 µM"],
  ["Fc1ccc(Cn2c3ccccc3c3ccnc(Br)c32)cc1", "> 300 µM"]
]}

Under CWR22R: IC50 value of "CC[N+](CC)(CCCNC(=O)c1nccc2c1[nH]c1ccccc12)Cc1ccccc1" ?
71.4 µM

Under CWR22R: IC50 value of "CC[N+](C)(CC)CCCNC(=O)c1nccc2c1[nH]c1ccccc12" ?
> 300 µM

Under CWR22R: IC50 value of "CCCCn1c2ccccc2c2ccnc(Br)c21" ?
236 µM

----------
# Tested on: 769-P
# Protocol Summary: Cytotoxicity against human 769-P cells by MTT assay
# Format: functional, cell-based
pIC50: −log10 of the molar value.
Experimental Endpoint: pIC50

As a guide, the following entries are already answered.
{"columns": ["Sample Smiles", "Data Value"],
 "data": [
  ["Fc1c(F)c(F)c(Cn2c3ccccc3c3ccnc(Br)c32)c(F)c1F", "< 3.52"],
  ["CCCCn1c2ccccc2c2ccnc(Br)c21", "< 3.52"]
]}

Fill blank: measured pIC50 of the compound "CC[N+](C)(CC)CCCNC(=O)c1nccc2c1[nH]c1ccccc12" is ____.
< 3.52
